# EXPERIMENTAL_PROTOCOL: Cytotoxicity against mouse betaTC3 cells assessed as cell viability at 10 uM after 48 hrs by MTT assay relative to control
# Format: cell-based, Beta-TC3
# MEASUREMENT_PARAMETERS: read-out: Activity
As shown below, each of these compounds has a reported viability at 48 h, 10 µM value.
Your answer should be a plain number; it is taken to be in %.

Please review the entries below; each comes with its answer.
{"COMPOUND": "CCCCCCCCCCCCCCCCCC(=O)OCC(COP(=S)([S-])OCC[N+](C)(C)C)OC (racemic)", "UNIT_TEXT": "%", "viability at 48 h, 10 µM": 96.8}
{"COMPOUND": "CCCCCCCCCCCCCC(=O)OCC(COP(=S)([S-])OCC[N+](C)(C)C)OC (racemic)", "UNIT_TEXT": "%", "viability at 48 h, 10 µM": 87.9}
{"COMPOUND": "CCCCCCCCCCCC(=O)OCC(COP(=O)([S-])OCC[N+](C)(C)C)OC (racemic)", "UNIT_TEXT": "%", "viability at 48 h, 10 µM": 106}

Please indicate viability at 48 h, 10 µM recorded for CCCCCCCC/C=C\CCCCCCCC(=O)OC[C@@H](O)COP(=O)([O-])OCC[N+](C)(C)C
93.4

###

# EXPERIMENTAL_PROTOCOL: Cytotoxicity against mouse betaTC3 cells assessed as cell viability at 10 uM after 24 hrs by MTT assay relative to control
# Type: cell-based, Beta-TC3
# MEASUREMENT_PARAMETERS: read-out: Activity
MEASUREMENT_TYPE: viability at 24 h, 10 µM

Some molecules with recorded viability at 24 h, 10 µM:
{"MOLECULE": "CCCCCCCCCCCCCCCCCC(=O)OCC(COP(=O)([S-])OCC[N+](C)(C)C)OC (mixture of isomers)", "ENDPOINT_VALUE": "90.3%"}
{"MOLECULE": "CCCCCCCCCCCCCCCCCC(=O)OCC(COP(=S)([S-])OCC[N+](C)(C)C)OC (racemic)", "ENDPOINT_VALUE": "85.8%"}

Turning now to a further molecule:
Identify measured viability at 24 h, 10 µM associated with CCCCCCCC/C=C\CCCCCCCC(=O)OCC(COP(=S)([S-])OCC[N+](C)(C)C)OC (racemic)
90.5%

###

# EXPERIMENTAL_PROTOCOL: Cytotoxicity against mouse betaTC3 cells assessed as cell viability at 10 uM after 24 hrs by MTT assay relative to control
# Type: cell-based, Beta-TC3
# MEASUREMENT_PARAMETERS: read-out: Activity
MEASUREMENT_TYPE: viability at 24 h, 10 µM (%)
Kindly answer with a numeric value in %, unit omitted.

Using known records, supply viability at 24 h, 10 µM for CCCCCCCCCCCCCCCC(=O)OCC(COP(=O)([S-])OCC[N+](C)(C)C)OC (racemic)
105

###

Here the recorded viability at 24 h, 25 µM is given for each entry.
# EXPERIMENTAL_PROTOCOL: Cytotoxicity against mouse betaTC3 cells assessed as cell viability at 25 uM after 24 hrs by MTT assay relative to control
# Assay type: cell-based, Beta-TC3
# MEASUREMENT_PARAMETERS: read-out: Activity
Number first, unit second.

{"MOLECULE": "CCCCCCCCCCCCCCCC(=O)OCC(COP(=S)([S-])OCC[N+](C)(C)C)OC (racemic)", "MEASUREMENT_TYPE": "viability at 24 h, 25 µM", "ENDPOINT_VALUE": "58.7%"}
{"MOLECULE": "CCCCCCCC/C=C\\CCCCCCCC(=O)OC[C@@H](O)COP(=O)([O-])OCC[N+](C)(C)C", "MEASUREMENT_TYPE": "viability at 24 h, 25 µM", "ENDPOINT_VALUE": "81.1%"}
{"MOLECULE": "CCCCCCCCCCCCCC(=O)OCC(COP(=O)([S-])OCC[N+](C)(C)C)OC (mixture of isomers)", "MEASUREMENT_TYPE": "viability at 24 h, 25 µM", "ENDPOINT_VALUE": "73.7%"}
{"MOLECULE": "CCCCCCCC/C=C\\CCCCCCCC(=O)OCC(COP(=S)([S-])OCC[N+](C)(C)C)OC (racemic)", "MEASUREMENT_TYPE": "viability at 24 h, 25 µM", "ENDPOINT_VALUE": "111%"}
{"MOLECULE": "CCCCCCCCCCCC(=O)OC[C@@H](O)COP(=O)([O-])OCC[N+](C)(C)C [LYSOPHOSPHATIDYLCHOLINE]", "MEASUREMENT_TYPE": "viability at 24 h, 25 µM", "ENDPOINT_VALUE": "83%"}

Input CCCCCCCCCCCC(=O)OCC(COP(=S)([S-])OCC[N+](C)(C)C)OC (racemic) , output reported viability at 24 h, 25 µM.
83.7%

Name the recorded viability at 24 h, 25 µM of the item CCCCCCCCCCCCCCCCCC(=O)OCC(COP(=S)([S-])OCC[N+](C)(C)C)OC (racemic) in your answer.
63.1%

Answer with the recorded viability at 24 h, 25 µM for the molecule listed here: CCCCCCCCCCCCCCCCCC(=O)OCC(COP(=O)([S-])OCC[N+](C)(C)C)OC (mixture of isomers)
82.9%

For CCCCCCCCCCCCCCCCCC(=O)OC[C@@H](O)COP(=O)([O-])OCC[N+](C)(C)C , write its viability at 24 h, 25 µM.
38.7%
